- Substrate: PET
- experiment notes: Proxy for plastic degradation [Released monomer concentration (HPLC/LC-MS) (MHET+TPA)]
- condition set: pH 7; 30 °C; part of the chain shown
Below: a set of entries, each annotated with reported Proxy for plastic degradation.
measurement name: Proxy for plastic degradation

- protein: "unnamed (protein) QTNPYARGPNPTAASLEASAGPFTVRSFTVSRPSGYGAGTVYYPTNAGGTVGAIAIVPGYTARQSSIKWWGPRLASHGFVVITIDTNSTLDQPSSRSSQQMAALRQVASLNGTSSSPIYGKVDTARMGVMGWSMGGGGSLISAANNPSLKAAAPQAPWDSSTNFSSVTVPTLIFACENDSIAPVNSSALPIYDSMSRNAKQFLEINGGSHSCANSGNSNQALIGKKGVAWMKRFMDNDTRYSTFACENPNSTRVSDFRTANCSLEHHHHHH"
  reported measurement: "0.15 mM"
- protein: "unnamed (protein) QTNPYARGPNPTAASLEASAGPFTVRSFTVSRPSGYGAGTVYYPTNAGGTVGAIAIVPGYTARQSSIKWWGPRLASHGFVVITIDTNSTFDYPSSRSSQQMAALRQVASLNGDSSSPIYGKVDTARMGVMGHSMGGGASLRSAANNPSLKAAIPQAPWDSQTNFSSVTVPTLIFACENDSIAPVNSHALPIYDSMSRNAKQFLEINGGSHSCANSGNSNQALIGKKGVAWMKRFMDNDTRYSTFACENPNSTAVSDFRTANCSLEHHHHHH"
  reported measurement: "0.15 mM"
- protein: "unnamed (protein) QTNPYARGPNPTAASLEASAGPFTVRSFTVSRPSGYGAGTVYYPTNAGGTVGAIAIVPGYTARQSSIKWWGPRLASHGFVVITIDTNSTLDQPESRSSQQMAALRQVASLNGTSSSPIYGKVDTARMGVMGWSMGGGGSLISAANNPSLKAAAPQAPWHSSTNFSSVTVPTLIFACENDSIAPVNSSALPIYDSMSRNAKQFLEINGGSHSCANSGNSNQALIGKKGVAWMKRFMDNDTRYSTFACENPNSTAVSDFRTANCSLEHHHHHH"
  reported measurement: "1.2 mM"
- protein: "unnamed (protein) QTNPYARGPNPTAASLEASAGPFTVRSFTVSRPSGYGAGTVYYPTNAGGTVGAIAIVPGYTARQSSIKWWGPRLASHGFVVITIDTNSTLDQPESRSSQQMAALRQVASLNGTSSSPIYGKVDTARMGVMGWSMGGGGSLISAANNPSLKAAAPQAPWHSSTNFSSVTVPTLIFACENDSIAPVNSSALPIYDSMSQNAKQFLEIKGGSHSCANSGNSNQALIGKKGVAWMKRFMDNDTRYSTFACENPNSTAVSDFRTANCSLEHHHHHH"
  reported measurement: "1.5 mM"

Source listed as the PETadex activity labels (doi:10.1038/s41586-022-04599-z).
